Please go through the items and note down their logP.
PROTOCOL NOTES: method code SF-HPLC, from DOI: 10.1016/j.ejmech.2006.12.027, PMID: 17306423
Give bare numbers.

Observe how each entry below is paired with its result.
chemical_structure=CC1(C)N(O)C(c2ccco2)=[N+]([O-])C1(C)C recorded_value=0.62
chemical_structure=CC1(C)N(O)C(c2cccnc2)=[N+]([O-])C1(C)C recorded_value=0.51
chemical_structure=CC1(C)N(O)C(c2ccc(OCC(=O)O)cc2)=[N+]([O-])C1(C)C recorded_value=-0.52

Batch: logP for all items listed.
1. CC1(C)N(O)C(c2cccc([N+](=O)[O-])c2)=[N+]([O-])C1(C)C
2. CC1(C)N(O)C(c2ccc(Cl)cc2)=[N+]([O-])C1(C)C

Output:
1: 1.64; 2: 2.33

For each listed entry, give its logP.
1. CC1(C)N(O)C(c2ccccc2O)=[N+]([O-])C1(C)C
2. CC1(C)N(O)C(c2ccccc2[N+](=O)[O-])=[N+]([O-])C1(C)C
3. CC1(C)N(O)C(c2ccccc2F)=[N+]([O-])C1(C)C

Output:
1. 1.17
2. 0.91
3. 0.82

Respectfully, I request logP for each entry included below.
1. COc1cc(C2=[N+]([O-])C(C)(C)C(C)(C)N2O)ccc1O
2. COc1ccc(C2=[N+]([O-])C(C)(C)C(C)(C)N2O)cc1
3. COc1ccc(C2=[N+]([O-])C(C)(C)C(C)(C)N2O)cc1O

Output:
1.14
1.62
0.92
